- studySystem: Thrombin (recombinant thrombin) (Homo sapiens)
- Construct: purchased R&D
- assayNotes: IC50 determination, spectrophotometric protease assay
- Type: biochemical

>  <molecule>
CC(=O)Nc1ccc(OP(=O)(Oc2ccc(NC(C)=O)cc2)C(Cc2ccc(NC(=N)N)cc2)NC(=O)OCCCc2cn(CCOCCOCCOCCNC(=O)CCCCC[C@H]3NC(=O)N[C@H]3C)nn2)cc1 (stereo partly shown) [52b]

>  <comparisonSign>
=

>  <IC50 (µM)>
0.76

$$$$
>  <molecule>
C#CCCCOC(=O)NC(CCCNC(=N)N)P(=O)(Oc1ccccc1)Oc1ccccc1 (stereo not shown) [32b]

>  <comparisonSign>
=

>  <IC50 (µM)>
0.85

$$$$
>  <molecule>
C#CCCCOC(=O)NC(Cc1ccccc1)P(=O)(Oc1ccccc1)Oc1ccccc1 (stereo not shown)

>  <comparisonSign>
>

>  <IC50 (µM)>
10

$$$$
>  <molecule>
C#CCCCOC(=O)NC(Cc1ccc(NC(=N)N)cc1)P(=O)(Oc1ccc(NC(C)=O)cc1)Oc1ccc(NC(C)=O)cc1 (stereo not shown) [35b]

>  <comparisonSign>
=

>  <IC50 (µM)>
1.11

$$$$
>  <molecule>
C#CCCCOC(=O)NC(Cc1ccc(CNC(=N)N)cc1)P(=O)(Oc1ccccc1)Oc1ccccc1 (stereo not shown) [40b]

>  <comparisonSign>
>

>  <IC50 (µM)>
10

$$$$
>  <molecule>
C#CCCCOC(=O)NC(CCCN)P(=O)(Oc1ccccc1)Oc1ccccc1.O=C(O)C(F)(F)F (stereo not shown) [14b]

>  <comparisonSign>
>

>  <IC50 (µM)>
10

$$$$
>  <molecule>
C#CCCCOC(=O)NC(Cc1ccc(N)cc1)P(=O)(Oc1ccc(NC(C)=O)cc1)Oc1ccc(NC(C)=O)cc1 (stereo not shown) [17b]

>  <comparisonSign>
=

>  <IC50 (µM)>
2.97

$$$$
>  <molecule>
C[C@@H]1NC(=O)N[C@@H]1CCCCCC(=O)NCCOCCOCCOCCn1cc(CCCOC(=O)NC(Cc2ccc(NC(=N)N)cc2)P(=O)(Oc2ccc(Cl)cc2)Oc2ccc(Cl)cc2)nn1 (stereo partly shown) [54b]

>  <comparisonSign>
=

>  <IC50 (µM)>
0.2

$$$$
>  <molecule>
C#CCCCOC(=O)NC(Cc1ccc(NC(=N)N)cc1)P(=O)(Oc1ccc(Cl)cc1)Oc1ccc(Cl)cc1 (stereo not shown) [36b]

>  <comparisonSign>
=

>  <IC50 (µM)>
1.77

$$$$
>  <molecule>
C#CCCCOC(=O)NC(CCCCN)P(=O)(Oc1ccc(NC(=O)OC)cc1)Oc1ccc(NC(=O)OC)cc1 (stereo not shown) [30b]

>  <comparisonSign>
=

>  <IC50 (µM)>
1.18

$$$$
>  <molecule>
C[C@@H]1NC(=O)N[C@@H]1CCCCCC(=O)NCCOCCOCCOCCn1cc(CCCOC(=O)NC(Cc2ccccc2)P(=O)(Oc2ccccc2)Oc2ccccc2)nn1 (stereo partly shown)

>  <comparisonSign>
>

>  <IC50 (µM)>
10

$$$$
>  <molecule>
C#CCCCOC(=O)NC(Cc1ccc(N)cc1)P(=O)(Oc1ccccc1)Oc1ccccc1 (stereo not shown) [16b]

>  <comparisonSign>
>

>  <IC50 (µM)>
10

$$$$
>  <molecule>
C#CCCCOC(=O)NC(Cc1ccc(CN)cc1)P(=O)(Oc1ccccc1)Oc1ccccc1 (stereo not shown) [22b]

>  <comparisonSign>
>

>  <IC50 (µM)>
10

$$$$
